B1: CPEB3 Ribozyme (parent)
chain: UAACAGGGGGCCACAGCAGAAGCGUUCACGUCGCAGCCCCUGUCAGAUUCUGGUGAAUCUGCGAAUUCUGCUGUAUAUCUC

Variants of: B1
Assay: self-cleavage, relative activity (ratio to wild type); higher = more cleavage; in vitro, sequencing
Collected self-cleavage values appear next to each entry.

alteration | self-cleavage
A21G G46C | 0.18
A13U U67C | 0.3
G33C A47G | 0.08
G42A U58C | 0.25
C34U U60C | 0.11
A15G U74G | 1.14
A47G A75G | 0.88
C44A U76C | 0.37
U43A C71U | 0.49
G53A A56G | 1
C12U U74A | 1.3
U26G U78A | 0.51
G8U C79U | 0.04
U26A G63A | 0.74
A15G U66C | 0.37
A20G A21U | 0.26
U51C G52C | 1
A3U C17A | 0.26
A5C C23G | 0.18
C40U A77U | 0.81
G9A U58G | 0.08
U1A U78C | 0.91
C14A U51A | 1.1
U26A G33A | 0.17
A64G G73A | 1.24
U31A U43G | 0.33
G7A U74C | 0.5
U49A C50A | 0.5
A35U U69A | 0.26
A45G A65G | 0.35
G6A C29A | 0.05
C11G A64U | 0.16
C14A C32A | 0.2
A28U G33C | 0.26
U31C C32A | 0.31
A20U C38A | 0.1
U43A U69A | 0.79
U51C A64U | 0.42
A2G U67C | 0.26
C4A A47G | 1.12
G33A A45G | 0.24
U26C A75U | 0.56
G22C U67A | 0.16
U49A U76C | 0.69
A47C G55U | 0.16

All values here come from the RNAGym collection of RNA variant scans (doi:10.1093/nar/gkz1192).
